Molecular target: T1, human Y2 receptor (human, UniProt P49146 1-381)
T1 sequence (looked up): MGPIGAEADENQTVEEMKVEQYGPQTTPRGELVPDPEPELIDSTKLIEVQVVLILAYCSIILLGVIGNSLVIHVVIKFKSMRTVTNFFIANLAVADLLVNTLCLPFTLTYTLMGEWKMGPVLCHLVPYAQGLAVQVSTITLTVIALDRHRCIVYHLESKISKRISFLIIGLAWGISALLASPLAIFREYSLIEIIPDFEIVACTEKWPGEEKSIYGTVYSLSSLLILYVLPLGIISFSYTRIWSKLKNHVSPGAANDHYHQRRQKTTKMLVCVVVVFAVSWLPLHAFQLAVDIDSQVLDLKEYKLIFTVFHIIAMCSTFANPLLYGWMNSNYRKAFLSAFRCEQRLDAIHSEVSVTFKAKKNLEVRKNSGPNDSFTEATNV
Experiment: cell-based or functional assay
Non-standard residues stand in square brackets, D forms with d. No end group written: not given here. *: point of attachment. Amidino = amidino group, N=C(N)*; tBuAla = CC(C)(C)C[C@H](N)C(=O)O; Cha = N[C@@H](CC1CCCCC1)C(=O)O; 4Amb = NCc1ccc(C(=O)O)cc1; Aib = CC(C)(N)C(=O)O
property_measured: GBA EC50 Ratio (vs PYY(3-36)), [35S]GTPγS (ratio)
Numbers only, in ratio.

binder="[4Amb]RAYINLITRQRF-NH2 (N-terminus assumed; SMILES CC[C@H](C)[C@H](NC(=O)[C@H](Cc1ccc(O)cc1)NC(=O)[C@H](C)NC(=O)[C@H](CCCNC(=N)N)NC(=O)c1ccc(CN)cc1)C(=O)N[C@@H](CC(N)=O)C(=O)N[C@@H](CC(C)C)C(=O)N[C@H](C(=O)N[C@H](C(=O)N[C@@H](CCCNC(=N)N)C(=O)N[C@@H](CCC(N)=O)C(=O)N[C@@H](CCCNC(=N)N)C(=O)N[C@@H](Cc1ccccc1)C(N)=O)[C@@H](C)O)[C@@H](C)CC, also called compound No. 6) [4-Aminomethylbenzoyl-[Ala26, Ile28,31, Phe36]-PYY(25-36)]" unit_annotation=ratio endpoint_value=5.9

Okay, now this binder:
Which GBA EC50 Ratio (vs PYY(3-36)), [35S]GTPγS is reported for this binder? Amidino-S[dP]RH[Cha][tBuAla]NK[Aib]TRQR[Cha]-NH2 (SMILES C[C@@H](O)[C@H](NC(=O)C(C)(C)NC(=O)[C@H](CCCCN)NC(=O)[C@H](CC(N)=O)NC(=O)[C@H](CC(C)(C)C)NC(=O)[C@H](CC1CCCCC1)NC(=O)[C@H](Cc1c[nH]cn1)NC(=O)[C@H](CCCNC(=N)N)NC(=O)[C@H]1CCCN1C(=O)[C@H](CO)NC(=N)N)C(=O)N[C@@H](CCCNC(=N)N)C(=O)N[C@@H](CCC(N)=O)C(=O)N[C@@H](CCCNC(=N)N)C(=O)N[C@@H](CC1CCCCC1)C(N)=O, also called compound No. 186) [Amidino-[D-Pro24, Cha27,36, Leu(Me)28, Lys30, Aib31]-PYY(23-36)]
0.69
